The values you see were collected from PubChem BioAssay (NCI).

Test system: RXF 393 renal
Assay: NCI tumour cell line growth inhibition, 48 h
List of TGI values.
property: TGI (µM)

1. CCN1C(=O)C(=C/C=C/c2ccc(OC)cc2)C(=O)N(CC)C1=S ... 39.8
2. Cn1c(=O)n(CCCO)c(=O)c2c1nc(Oc1cccc(OC(F)(F)F)c1)n2Cc1ccc(Cl)cc1 ... 27.3
3. CC1=C(C(=O)OCc2ccncc2)C(C2=C(C)SCCS2)C(C(=O)OCc2ccncc2)=C(C)N1 ... 27.4
4. C#C[C@]1(O)CC[C@H]2[C@@H]3CC=C4c5nc(Nc6ncccn6)sc5CC[C@]4(C)[C@H]3CC[C@@]21C ... 1.69
5. Cc1c(S(=O)(=O)/N=C(\NN)Nc2ccc(Cl)cc2)sc2ccc(Cl)cc12 ... 23.6
6. COc1ccc(-c2c(-c3cc(OC)c(OC)c(OC)c3)nc3sc(C4CC4)nn23)cc1OC ... 43
7. COc1ccc(C(=C[N+](=O)[O-])c2ccc(OC)cc2)cc1 ... 49.1
8. COc1ccc(Nc2nn3c(=O)c4c(C)c(C)sc4nc3s2)cc1 ... 36.7
9. N#C/C(=C\c1cn(Cc2ccccc2)c2ccccc12)C(=O)Nc1ncc(Cc2ccccc2Cl)s1 ... 6.14
10. CCOC(=O)c1ccc2c(c1)[n+](=O)c(C(=O)C1CCCS1)c(C(F)(F)F)n2[O-] (centres undefined) ... 1.86
11. O=C(Nc1c(Cl)cccc1Cl)c1c(Cl)c(Cl)c(Cl)c(Cl)c1-c1nc2ccccc2[nH]1 ... 45.2
12. CN(C)CCN=C1c2ccccc2-c2c(=O)n(CCN(C)C)c(O)c3cccc1c23 ... 0.085
13. C=C1C(=O)O[C@@H]2O[C@@]3(C)CC[C@H]4[C@H](C)CC[C@@H]1[C@@]24O3 ... 54.7
14. COc1cccc2c1C(=O)c1c(O)c3c(c(O)c1C2=O)CC(O)(/C(C)=N/NC(=O)CCCCC(=O)N/N=C(\C)C1(O)Cc2c(O)c4c(c(O)c2C(OC2CC(N)C(O)C(C)O2)C1)C(=O)c1c(OC)cccc1C4=O)CC3OC1CC(N)C(O)C(C)O1 (centres undefined) ... 0.831
15. COC(=O)C1=C(OC(=O)c2ccccc2)C(C(=O)OC)[C@]2(O)[C@@H](C(=O)OC)C1CC(c1ccccc1OC)[C@@H]2C(=O)OC (some centres undefined) ... 8.65
16. C[n+]1c2ccccc2n2c3ccccc3c(NCCCN3CCOCC3)c(C#N)c21 ... 3.91
17. O=C(CN=C(CN(c1ccccc1)c1ccccc1)Oc1c(Cl)cc(Cl)cc1Cl)N1c2ccccc2Sc2ccccc21 ... 27.4
18. COc1ccc(C(c2ccc(C(C)C)cc(OC)c2=O)c2ccc(C(C)C)cc(OC)c2=O)cc1 ... 15
19. O=C(Nc1cccc(-n2ccc3c(NC(=O)c4ccccc4)nccc32)c1)Nc1ccc(Cl)c(C(F)(F)F)c1 ... 0.693

* * *

Tested on: HOP-92 NSCLC
Assay: NCI tumour cell line growth inhibition, 48 h
property: TGI

1. CCOC(=O)c1csc(CCCCCCc2nc(C(=O)OCC)cs2)n1 ... > 100 µM
2. CCOC(=O)NC(Nc1ccc(OC(F)(F)F)cc1)(C(F)(F)F)C(F)(F)F ... > 100 µM
3. Oc1c(CN2CCOCC2)ccc(CN2CCOCC2)c1O ... > 100 µM
4. O=C(Nc1c(Cl)cccc1Cl)c1c(Cl)c(Cl)c(Cl)c(Cl)c1-c1nc2ccccc2[nH]1 ... > 100 µM
5. CC(CCOc1c2ccoc2cc2oc(=O)ccc12)C1=CC(=O)C(C)(C)O1 (stereo not drawn) ... > 100 µM
6. COC(=O)C1C(O)C(C)C(=O)C(C)/C=C\C=C(C)C(=O)Nc2c(C)c(OC(C)=O)c3c(c2O)C(=O)C(C)=C2OCOC(=C23)C(C)=CC(C)(O)C(O)C(C)C1O (stereo not drawn) ... > 100 µM
7. COc1cccc2c1C(=O)c1c(O)c3c(c(O)c1C2=O)CC(O)(/C(C)=N/NC(=O)CCCCC(=O)N/N=C(\C)C1(O)Cc2c(O)c4c(c(O)c2C(OC2CC(N)C(O)C(C)O2)C1)C(=O)c1c(OC)cccc1C4=O)CC3OC1CC(N)C(O)C(C)O1 (stereo not drawn) ... 2.45 µM
8. CC1=NCC[N+]1(CCc1ccccc1)Cc1ccccc1 (stereo not drawn) ... 49.8 µM
